# Test system: Mycobacterium tuberculosis
# TEST METHOD NOTES: Antimycobacterial activity against Mycobacterium tuberculosis XDR infected in MDBK by BACTEC analysis
# Format: functional
Parameter: MIC. Scope: all listed entries.

Previously resolved entries follow.
| COMPOUND | MEASURE | ASSAY VALUE |
| --- | --- | --- |
| CO[C@H]1/C=C/O[C@@]2(C)Oc3c(C)c(O)c4c(O)c(c(/C=N/N5CCN(C)CC5)c(O)c4c3C2=O)NC(=O)/C(C)=C\C=C\[C@H](C)[C@H](O)[C@@H](C)[C@@H](O)[C@@H](C)[C@H](OC(C)=O)[C@@H]1C | MIC | > 1 µg/mL |
| CC[C@@H](CO)NCCN[C@@H](CC)CO | MIC | > 2.5 µg/mL |
| CC(C)=CCC/C(C)=C\CN1CCN(CCC23OC4(CCN5CCN(C/C=C(\C)CCC=C(C)C)CC5)C5C6CC(C7C6C4C72)C53)CC1 (centres undefined) | MIC | 1.52 µM |
| NNC(=O)c1ccncc1 | MIC | > 0.2 µg/mL |
| CC1COc2c(N3CCN(C)CC3)c(F)cc3c(=O)c(C(=O)O)cn1c23 (centres undefined) | MIC | > 2 µg/mL |
| NCC[C@H](O)C(=O)N[C@@H]1C[C@H](N)[C@@H](O[C@H]2O[C@H](CN)[C@@H](O)[C@H](O)[C@H]2O)[C@H](O)[C@H]1O[C@H]1O[C@H](CO)[C@@H](O)[C@H](N)[C@H]1O | MIC | > 5 µg/mL |

Param readout= MIC; system= Mycobacterium tuberculosis; entry= CC(C)=CCC/C(C)=C/CC/C(C)=C\CN1CCN(CCC23OC4(CCN5CCN(C/C=C(\C)CC/C=C(\C)CCC=C(C)C)CC5)C5C6CC(C7C6C4C72)C53)CC1 (centres undefined) ; returns value.
0.63 µM

// repeat for NC[C@H]1O[C@H](O[C@H]2[C@H](O)[C@@H](O[C@H]3O[C@H](CO)[C@@H](O)[C@H](N)[C@H]3O)[C@H](N)C[C@@H]2N)[C@H](O)[C@@H](O)[C@@H]1O and report
> 5 µg/mL

Record: CCCCCCCCCCN1CCN(CCC23OC4(CCN5CCN(CCCCCCCCCC)CC5)C5C6CC(C7C6C4C72)C53)CC1 (centres undefined)
0.75 µM
